# measurementProtocol: Bidirectional permeability in Caco-2 cells
# Assay type: in vitro ADME
# runConditions: human; Caco-2, apical to basolateral, 120 minutes; read-out: mean apparent permeability coefficient (Papp), A to B
metricName: Papp A→B at 120 min

Q: Using the record for CO[C@]12CC[C@@]3(C[C@@H]1[C@](C)(O)C(C)(C)C)[C@H]1Cc4ccc(OCCOc5ccc6c7c5O[C@H]5C78CCN(CC7CC7)[C@H](C6)[C@]86CC[C@]5(OC)[C@@H]([C@](C)(O)C(C)(C)C)C6)c5c4[C@@]3(CCN1CC1CC1)[C@@H]2O5 [ORP-101, reference compound] , report its Papp A→B at 120 min.
A: < 0.14 ×10⁻⁶ cm/s

----------
# measurementProtocol: Metabolic stability in human liver microsomes
# Assay type: in vitro ADME
# runConditions: 1 μM, NADPH, 37° C., up to 60 min, read-out: half-life (T1/2)
metricName: half-life at 1 μM

Q: Using the record for COc1ccc2c3c1O[C@@H]1[C@@]4(OCCOc5ccc6c7c5OC5C8(OC)CC[C@@]9(CC8[C@](C)(O)C(C)(C)C)[C@@H](C6)N(CC6CC6)CCC759)CC[C@@]5(C[C@@H]4[C@](C)(O)C(C)(C)C)[C@@H](C2)N(CC2CC2)CC[C@]315 (stereo in doubt) [Compound D] , report its half-life at 1 μM.
A: 1.37 h
